assay-text: Human HepG2 cell viability assay in 384 well format
Format: toxicity, cell-based
Design: dose 125 nL, time 70.5 hour; concentration not given beside the values
condition-info: HepG2 cells, read-out: Inhibition
Entries and their measured cytotoxicity at 70.5 h follow.
quantity: cytotoxicity at 70.5 h (%)

>  <compound>
CCCN1CCN(CC(O)c2ccc(OC(F)(F)F)cc2)CC1 (configuration not stated)

>  <quantity-unit>
%

>  <assay-value>
-0.084

$$$$
>  <compound>
Cn1cnc(S(=O)(=O)N2CCCc3c(F)cc(F)cc32)c1Cl

>  <quantity-unit>
%

>  <assay-value>
22.3

$$$$
>  <compound>
CNC(=O)c1cccc(CNC(C)c2ccc(F)cc2N(C)C)c1 (configuration not stated)

>  <quantity-unit>
%

>  <assay-value>
-7.51

$$$$
>  <compound>
CN(Cc1cc2n(n1)CCNC2)Cc1n[nH]c2c1CCCCC2

>  <quantity-unit>
%

>  <assay-value>
-1.36

$$$$
>  <compound>
CN(C)CC(c1ccccc1)N(C)C(=O)c1cccc(NCC(=O)O)c1 (configuration not stated)

>  <quantity-unit>
%

>  <assay-value>
-0.106

$$$$
>  <compound>
CCc1ncc2c(n1)CN(CC(=O)Nc1nncs1)CC2

>  <quantity-unit>
%

>  <assay-value>
-7.12

$$$$
>  <compound>
CN1CCN(C(=O)Cc2cccc(F)c2)Cc2cccnc21

>  <quantity-unit>
%

>  <assay-value>
-5.94

$$$$
>  <compound>
O=C1NCCN(CC2CC2)C12CCN(Cc1ccco1)CC2

>  <quantity-unit>
%

>  <assay-value>
12.8

$$$$
>  <compound>
NC(=O)C1(Cc2ccccc2-c2ccccc2)CCCN(CC2CC2)C1 (configuration not stated)

>  <quantity-unit>
%

>  <assay-value>
-14.5

$$$$
>  <compound>
Cc1cnn(CCNCC(O)COc2ccc(C#N)cc2)c1 (configuration not stated)

>  <quantity-unit>
%

>  <assay-value>
-5.86

$$$$
>  <compound>
Cc1ccc(-c2nnc(NC(=O)c3ccn(C)c(=O)c3)[nH]2)s1

>  <quantity-unit>
%

>  <assay-value>
-19.1

$$$$
>  <compound>
CN(Cc1cccc(F)c1)C(=O)CN1CCOC(Cn2cncn2)C1 (configuration not stated)

>  <quantity-unit>
%

>  <assay-value>
-0.78

$$$$
>  <compound>
N#Cc1ccc(N2CCCC(CO)(CCOc3ccccc3)C2)nc1 (configuration not stated)

>  <quantity-unit>
%

>  <assay-value>
-6.22

$$$$
>  <compound>
O=S(=O)(C1CC1)N1CCO[C@H]2[C@H](OCC3CC3)CC[C@@H]21

>  <quantity-unit>
%

>  <assay-value>
16.9

$$$$
>  <compound>
CCCn1ccc(C(=O)N2CCOC(c3nc(-c4cccs4)no3)C2)n1 (configuration not stated)

>  <quantity-unit>
%

>  <assay-value>
4.34

$$$$
>  <compound>
c1ccc(-c2cc(CN3C[C@@H]4CC[C@H](C3)N(CC3CC3)C4)on2)cc1

>  <quantity-unit>
%

>  <assay-value>
-6.85

$$$$
>  <compound>
CN(C)C(=O)N1Cc2nnn(CC3CC3)c2C(COCC2CC2)C1 (configuration not stated)

>  <quantity-unit>
%

>  <assay-value>
-6.92

$$$$
>  <compound>
CNc1cncc(C2CCCN2C(=O)c2ccc3c(c2)OCCO3)n1 (configuration not stated)

>  <quantity-unit>
%

>  <assay-value>
20.5

$$$$
>  <compound>
COc1ccc(F)cc1-c1nc2c([nH]1)c(C1CC1)nn2C

>  <quantity-unit>
%

>  <assay-value>
-4.46

$$$$
>  <compound>
CC1(C(=O)NCc2cccnc2Oc2ccc(F)c(F)c2)CCCNC1 (configuration not stated)

>  <quantity-unit>
%

>  <assay-value>
8.1

$$$$
>  <compound>
c1coc(CN2CCCn3c(CN4CCOCC4)nnc3C2)c1

>  <quantity-unit>
%

>  <assay-value>
1.6

$$$$
>  <compound>
CN1C(=O)CO[C@H](c2ccc(NC(=O)c3cccc(F)c3)cc2)[C@H]1CO

>  <quantity-unit>
%

>  <assay-value>
-0.0128

$$$$
>  <compound>
O=C(C1CCOC1)N1C[C@H]2CN(Cc3ccncc3)C(=O)[C@H]2C1 (some centres not stated)

>  <quantity-unit>
%

>  <assay-value>
-9.99

$$$$
>  <compound>
COc1ccc(CN2CCO[C@H]3[C@H](OCCN4CCCC4)CC[C@@H]32)cc1

>  <quantity-unit>
%

>  <assay-value>
-9.88

$$$$
>  <compound>
Nc1nc2c(c(NC(Cn3cccn3)c3ccccc3)n1)CCNCC2 (configuration not stated)

>  <quantity-unit>
%

>  <assay-value>
0.802

$$$$
>  <compound>
Fc1cc(Cl)cnc1N1CCCC(c2nccn2Cc2ccncc2)C1 (configuration not stated)

>  <quantity-unit>
%

>  <assay-value>
-14

$$$$
>  <compound>
COc1ccc(C(=O)N2CCCC(n3nc(C)nc3C)C2)c(OC)c1 (configuration not stated)

>  <quantity-unit>
%

>  <assay-value>
21.8

$$$$
>  <compound>
O=C(CCn1nc(-c2cccs2)oc1=O)Nc1cccc(F)c1

>  <quantity-unit>
%

>  <assay-value>
-6.28

$$$$
>  <compound>
CNC(=O)C1(c2cnccn2)CCCN1C(=O)c1ccccc1OC (configuration not stated)

>  <quantity-unit>
%

>  <assay-value>
13.3

$$$$
>  <compound>
CNc1nc(CNC(=O)Nc2cccc(-c3ncc(C)o3)c2)cs1

>  <quantity-unit>
%

>  <assay-value>
9.47

$$$$
>  <compound>
CC(C)(CNc1cn[nH]c(=O)c1Cl)c1ccc2c(c1)OCCO2

>  <quantity-unit>
%

>  <assay-value>
-13.9

$$$$
>  <compound>
O=C(c1ccc2c(c1)CCC2)N1CC[C@H](O)[C@]2(CCCO2)C1

>  <quantity-unit>
%

>  <assay-value>
-0.381

$$$$
